System: OVCAR-5
PROTOCOL DESCRIPTION: NCI tumour cell line growth inhibition, 48 h
Activity calls are given as the source filed them. Rule as the data show it: active = GI50 up to about 1.1 µM and inactive = higher. Non-standard residues stand in square brackets, D forms with d. Residues, ends and D or L forms follow the SMILES beside them. ξ: configuration not given here. *: point of attachment. ξNMeF = CNC(Cc1ccccc1)C(=O)O; NMeV = CN[C@H](C(=O)O)C(C)C; Boc = CC(C)(C)OC(=O)*; OBn = c1ccc(CO*)cc1
EXPERIMENTAL READOUT: GI50

Worked cases, GI50 given:
compound="Cc1cc(N(CCC#N)CCC#N)ccc1CC1N=C(c2ccccc2)OC1=O (stereo not given)" experimental_readout=GI50 endpoint_result="> 100 µM (inactive)"
compound=O=S(=O)(O)c1c(Cl)cc(O)c2ncccc12 experimental_readout=GI50 endpoint_result="> 100 µM (inactive)"
compound="COC1CCC2C(NS(=O)(=O)c3ccc(C)cc3)CCCC2O1.Cc1ccc(S(=O)(=O)NC(C)(C)C=O)cc1 (stereo not given)" experimental_readout=GI50 endpoint_result="> 34.5 µM (inactive)"
compound=O=C(O)/C=C(/CC(=O)O)C(=O)O experimental_readout=GI50 endpoint_result="38.4 µM (inactive)"
compound="COP(=O)(OC)C(=O)N1N(c2ccc([N+](=O)[O-])cc2)C(=O)C(C)NC1(NNc1ccc([N+](=O)[O-])cc1)P(=O)(OC)OC (stereo not given)" experimental_readout=GI50 endpoint_result="> 100 µM (inactive)"

Write down GI50 measured for item `CC(=O)c1ccc(NC(=O)C(=O)CC(=O)c2sc(-n3nc(-c4ccccc4)cc3-c3ccccc3)nc2C)cc1`
> 100 µM (inactive)

Write down GI50 measured for item Brc1ccc2c(c1)C1C(CO2)C(c2ccccc2)=NN1c1ccccc1 (stereo not given)
> 100 µM (inactive)

Write down GI50 measured for item `COC(=O)c1ccc2c(O)c(O)ccc2c1`
19.2 µM (inactive)

Write down GI50 measured for item `CC(=O)OCc1ccc2oc(=O)c(C(=O)Oc3ccccc3)cc2c1`
> 100 µM (inactive)

Write down GI50 measured for item CC(C)[C@@H](C(=O)N(C)[C@H](C(=O)N1CCC[C@H]1C(=O)OCc1ccccc1)C(C)C)N(C)C(=O)C(Cc1ccccc1)N(C)C(=O)[C@H](NC(=O)OC(C)(C)C)C(C)C (stereo not given in full) (Boc-[dV][ξNMeF][NMeV][NMeV]P-OBn)
> 31.6 µM (inactive)

Write down GI50 measured for item `CCOc1ccc(/C=C2\N=C(c3ccccc3)OC2=O)cc1`
> 100 µM (inactive)
